- Test Protocol: in vivo
- Condition Details: mouse, in vivo, intravenous; mice, 95% confidence limits
Observable: LD50 (mg/kg)

1. CCCOC(=O)Cc1ccc(OCC(=O)N(CC)CC)c(OC(F)(F)F)c1 [Compound 5b] : 346

---

half-life at 200 µM for assorted compounds
- Test Protocol: In vitro metabolic half-life in rabbit whole blood
- Assay type: in vitro ADME
- Condition Details: male, New Zealand White rabbit (n = 3), 37°C, read-out: Mean t1/2 Value
Observable: half-life at 200 µM

1. CCCOC(=O)Cc1ccc(OCC(=O)N(CC)CC)c(OCC)c1 [AZD3043, reference compound] : 14.8 min
2. CCOc1cc(CC(=O)OCC(F)(F)F)ccc1OCC(=O)N(CC)CC [Compound 5j] : 11.6 min

---

- Test system: mice
- Test Protocol: in vivo
- Condition Details: LD50/HD50
Overview of reported TI across a group of molecules:
Observable: TI

1. CCCOC(=O)Cc1ccc(OCC(=O)N(CC)CC)c(OC)c1 [Propanidid] : 5.6
2. CCN(CC)C(=O)COc1ccc(CC(=O)OCC(F)(F)F)cc1OC [Compound 5g] : 6.1
3. CCOc1cc(CC(=O)OC(C)C(F)(F)F)ccc1OCC(=O)N(CC)CC (stereo not shown) [Compound 5l] : 5.1
4. CCN(CC)C(=O)COc1ccc(CC(=O)OC(C)C(F)(F)F)cc1OC (stereo not shown) [Compound 5i] : 5.5
5. CCOc1cc(CC(=O)OCC(F)(F)F)ccc1OCC(=O)N(CC)CC [Compound 5j] : 7.8
6. CCCOC(=O)Cc1ccc(OCC(=O)N(CC)CC)c(OC(F)(F)F)c1 [Compound 5b] : 5.9
7. CCOC(=O)Cc1ccc(OCC(=O)N(CC)CC)c(OC(F)(F)F)c1 [Compound 5a] : 6.1
8. CCCOC(=O)Cc1ccc(OCC(=O)N(CC)CC)c(OCC)c1 [AZD3043, reference compound] : 6.0
9. CCCOC(=O)Cc1ccc(OCC(=O)N(CC)CC)c(OCC(F)(F)F)c1 [Compound 5e] : 5.7
10. CCOC(=O)Cc1ccc(OCC(=O)N(CC)CC)c(OCC(F)(F)F)c1 [Compound 5d] : 5.5

---

LD50: recorded values
- Test Protocol: in vivo
- Condition Details: mouse, in vivo; mice, 95% confidence limits
Observable: LD50 (mg/kg)

1) CCCOC(=O)Cc1ccc(OCC(=O)N(CC)CC)c(OC)c1 [Propanidid] : 119
2) CCOc1cc(CC(=O)OCC(F)(F)F)ccc1OCC(=O)N(CC)CC [Compound 5j] : 192
3) CCOc1cc(CC(=O)OC(C)C(F)(F)F)ccc1OCC(=O)N(CC)CC (centres unmarked) [Compound 5l] : 103
4) CCOC(=O)Cc1ccc(OCC(=O)N(CC)CC)c(OC(F)(F)F)c1 [Compound 5a] : 442
5) CCCOC(=O)Cc1ccc(OCC(=O)N(CC)CC)c(OCC(F)(F)F)c1 [Compound 5e] : 250

---

- Test Protocol: In vitro metabolic half-life in monkey whole blood
- Type: in vitro ADME
- Condition Details: male, Cynomolgus monkey (n = 3), 37°C, read-out: Mean t1/2 Value
The entries below are paired with their reported half-life at 200 µM.
Observable: half-life at 200 µM (min)

1. CCOc1cc(CC(=O)OCC(F)(F)F)ccc1OCC(=O)N(CC)CC : 48.9
2. CCCOC(=O)Cc1ccc(OCC(=O)N(CC)CC)c(OCC)c1 [AZD3043, reference compound] : 56.7

---

- Test Protocol: In vitro metabolic half-life in rat whole blood
- Assay type: in vitro ADME
- Condition Details: male, Sprague-Dawley Rat (n = 3), 37°C, read-out: Mean t1/2 Value
Observable: half-life at 200 µM (s)

1. CCOc1cc(CC(=O)OCC(F)(F)F)ccc1OCC(=O)N(CC)CC : 24
2. CCCOC(=O)Cc1ccc(OCC(=O)N(CC)CC)c(OCC)c1 [AZD3043, reference compound] : 36

---

- Test Protocol: Octanol:water partition coefficient
- Assay type: physicochemical
- Condition Details: water buffered with 10 mm Tris (pH 7.4)
# Octanol:Water Partition (Coefficient ± SD) per entry
Observable: Octanol:Water Partition (Coefficient ± SD)

1. CCN(CC)C(=O)COc1ccc(CC(=O)OCCC(F)(F)F)cc1OC [Compound 5h] : 792±36
2. CCOc1cc(CC(=O)OC(C)C(F)(F)F)ccc1OCC(=O)N(CC)CC (centres unmarked) [Compound 5l] : 2857±400
3. CCOC(=O)Cc1ccc(OCC(=O)N(CC)CC)c(OC(F)(F)F)c1 [Compound 5a] : 2157±185
4. CCOc1cc(CC(=O)OCCC(F)(F)F)ccc1OCC(=O)N(CC)CC [Compound 5k] : 667±102
5. CCOC(=O)Cc1ccc(OCC(=O)N(CC)CC)c(OCC(F)(F)F)c1 [Compound 5d] : 778±77
6. CCCOC(=O)Cc1ccc(OCC(=O)N(CC)CC)c(OCC)c1 [AZD3043, reference compound] : 466±54
7. CCCOC(=O)Cc1ccc(OCC(=O)N(CC)CC)c(OC)c1 [Propanidid] : 394±40
8. CCOc1cc(CC(=O)OCC(F)(F)F)ccc1OCC(=O)N(CC)CC [Compound 5j] : 648±36
9. CCN(CC)C(=O)COc1ccc(CC(=O)OCC(F)(F)F)cc1OC [Compound 5g] : 597±68
10. CCN(CC)C(=O)COc1ccc(CC(=O)OCC(F)(F)F)cc1OC(F)(F)F [Compound 5c] : 3427±130
11. CCCOC(=O)Cc1ccc(OCC(=O)N(CC)CC)c(OCC(F)(F)F)c1 [Compound 5e] : 872±65
12. CCN(CC)C(=O)COc1ccc(CC(=O)OC(C)C(F)(F)F)cc1OC (centres unmarked) [Compound 5i] : 1857±124
13. CCN(CC)C(=O)COc1ccc(CC(=O)OCC(F)(F)F)cc1OCC(F)(F)F [Compound 5f] : 1452±156
14. CCCOC(=O)Cc1ccc(OCC(=O)N(CC)CC)c(OC(F)(F)F)c1 [Compound 5b] : 4745±280

---

Let's look at some compounds and their measured duration of LORR after cessation of infusion.
- Test system: rabbits
- Test Protocol: Hypnosis in response to IV infusion in rabbits
- Type: in vivo, rabbit
- Condition Details: 20-min IV infusion at half the HD50 per min after 2× HD50 induction
Observable: duration of LORR after cessation of infusion (s)

1) CCCOC(=O)Cc1ccc(OCC(=O)N(CC)CC)c(OC)c1 : 246.6
2) CCCOC(=O)Cc1ccc(OCC(=O)N(CC)CC)c(OCC)c1 [AZD3043, reference compound] : 135.6
3) CCOc1cc(CC(=O)OCC(F)(F)F)ccc1OCC(=O)N(CC)CC : 117.5
4) CC(C)c1cccc(C(C)C)c1O : 485.6

---

- Test system: GABAA receptor
- Test Protocol: GABAA radioligand binding assay ([3H]EBOB)
- Condition Details: 50 µM compound, 0.5 nM [3H]EBOB, rat frontoparietal cortex
Observable: GABAA binding (50 µmol) (Mean ± SD), percentage of inhibition (%)

1. CCN(CC)C(=O)COc1ccc(CC(=O)OC(C)C(F)(F)F)cc1OC (stereo not drawn) : 81.6
2. CCCOC(=O)Cc1ccc(OCC(=O)N(CC)CC)c(OCC)c1 [AZD3043, reference compound] : 83.2
3. CCOc1cc(CC(=O)OC(C)C(F)(F)F)ccc1OCC(=O)N(CC)CC (stereo not drawn) : 79.5
4. CCOC(=O)Cc1ccc(OCC(=O)N(CC)CC)c(OCC(F)(F)F)c1 : 67.7
5. CCCOC(=O)Cc1ccc(OCC(=O)N(CC)CC)c(OCC(F)(F)F)c1 : 72.2
6. CCOc1cc(CC(=O)OCC(F)(F)F)ccc1OCC(=O)N(CC)CC : 90.5
7. CCN(CC)C(=O)COc1ccc(CC(=O)OCC(F)(F)F)cc1OCC(F)(F)F : 45.4
8. CCCOC(=O)Cc1ccc(OCC(=O)N(CC)CC)c(OC(F)(F)F)c1 : 73.9
9. CCN(CC)C(=O)COc1ccc(CC(=O)OCC(F)(F)F)cc1OC(F)(F)F : 30.4

---

- Tested on: GABAA receptor
- Test Protocol: GABAA radioligand binding assay ([3H]EBOB)
- Condition Details: 50 µM compound, 0.5 nM [3H]EBOB, rat frontoparietal cortex
Here, each record is paired with measured GABAA binding (50 µmol) (Mean ± SD), percentage of inhibition data.
Observable: GABAA binding (50 µmol) (Mean ± SD), percentage of inhibition (%)

1. CCN(CC)C(=O)COc1ccc(CC(=O)OCC(F)(F)F)cc1OC : 87.2
2. CCCOC(=O)Cc1ccc(OCC(=O)N(CC)CC)c(OC)c1 : 70.2
3. CCOc1cc(CC(=O)OCCC(F)(F)F)ccc1OCC(=O)N(CC)CC : 74.0
4. CCN(CC)C(=O)COc1ccc(CC(=O)OCCC(F)(F)F)cc1OC : 80.3
5. CCOC(=O)Cc1ccc(OCC(=O)N(CC)CC)c(OC(F)(F)F)c1 : 69.1
